Experiment: Inhibition of Interleukin-1 alpha binding to Interleukin-1 receptor
reported_metric: IC50

*Q* Specify measured IC50 for `CCCCCCOc1cccc(CCOc2cc(OCCCN)ccc2C(=O)NC2c3ccccc3-c3ccccc32)c1` .
*A* < 10 µM

*Q* Indicate the recorded IC50 value for this molecule: `NCCc1ccc(OCCCN=C(N)N)cc1OCCc1ccccc1`
*A* 770 µM

*Q* Complete the entry with IC50 for `CCCCCCOc1ccc(CCOc2cc(OCCCN)ccc2C(=O)NC(c2ccccc2)c2ccccc2)cc1`
*A* < 10 µM

====

Organism: Oryctolagus cuniculus
Test: Inhibition of the absorption of dentine slices by rabbit osteoclasts
Format: functional
reported_metric: pIC50
Field pIC50 (float): negative decimal logarithm of the concentration in molar.

*Q* Give the reported pIC50 for this compound. CC(=O)NC(Cc1ccc(P(=O)(O)O)c(P(=O)(O)O)c1)C(=O)N[C@H]1CCCCc2cc(OCC3CCCCC3)c(C(N)=O)cc21 (stereo partly specified)
*A* 5.80
